Test: Antiproliferative activity against human QGY-7701 cells assessed as reduction in cell growth
Type: functional, cell-based
Conditions: QGY7701
readout label: IC50
State the value with its unit after it.

Q. Report IC50, nothing else, for this compound: CCCCCCCCc1c2[n+](cc3c(OC)c(OC)ccc13)CCc1cc3c(cc1-2)OCO3
A. 20 nM

---

System: SMMC-7721
Experiment: Antiproliferative activity against human SMMC-7721 cells assessed as reduction in cell growth
Assay type: functional, cell-based
readout label: pIC50
Lab note — pIC50 values are minus log10 of concentrations in M.

Q. Give reported pIC50 for CCCCCCCCc1c2[n+](cc3c(OC)c(OC)ccc13)CCc1cc3c(cc1-2)OCO3 (SMMC-7721)
A. 7.70

---

System: C6
Assay: Antiproliferative activity against rat C6 cells assessed as inhibition of cell growth incubated for 72 hrs by Sulforhodamine B assay
Type: functional, cell-based
Conditions: C6, 72 h
readout label: IC50 (nM)
Supply the numeric figure in nM, leaving out any unit text.

Q. Report IC50, nothing else, for this compound: CCCCCCCCCCCCc1c2[n+](cc3c(OC)c(OC)ccc13)CCc1cc3c(cc1-2)OCO3
A. 770

---

Molecular target: DNA topoisomerase 1 (Homo sapiens, UniProt P11387)
Sequence (P11387 whole entry): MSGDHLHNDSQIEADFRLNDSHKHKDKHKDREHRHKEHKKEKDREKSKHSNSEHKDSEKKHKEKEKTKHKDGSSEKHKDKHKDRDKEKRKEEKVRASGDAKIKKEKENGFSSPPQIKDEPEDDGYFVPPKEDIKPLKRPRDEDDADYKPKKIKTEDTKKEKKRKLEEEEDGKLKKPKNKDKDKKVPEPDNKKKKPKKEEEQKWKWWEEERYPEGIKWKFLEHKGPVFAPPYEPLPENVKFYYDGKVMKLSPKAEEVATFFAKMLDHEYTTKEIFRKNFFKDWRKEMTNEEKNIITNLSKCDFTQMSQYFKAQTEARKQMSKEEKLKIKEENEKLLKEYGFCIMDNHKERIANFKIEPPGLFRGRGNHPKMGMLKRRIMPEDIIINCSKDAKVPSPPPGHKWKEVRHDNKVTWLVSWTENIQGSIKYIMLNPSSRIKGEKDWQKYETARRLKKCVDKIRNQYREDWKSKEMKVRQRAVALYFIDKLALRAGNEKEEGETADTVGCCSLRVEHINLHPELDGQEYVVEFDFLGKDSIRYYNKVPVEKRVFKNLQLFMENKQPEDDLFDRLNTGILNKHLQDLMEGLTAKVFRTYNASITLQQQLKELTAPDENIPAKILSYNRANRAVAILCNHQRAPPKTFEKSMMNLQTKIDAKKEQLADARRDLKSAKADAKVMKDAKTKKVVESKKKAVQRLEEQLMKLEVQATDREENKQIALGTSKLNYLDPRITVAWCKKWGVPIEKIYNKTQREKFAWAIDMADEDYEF
Test: Inhibition of Topoisomerase 1 (unknown origin)
readout label: IC50 (nM)
Supply the numeric figure in nM, leaving out any unit text.

Q. Give reported IC50 for N=C(N)c1ccc(-c2ccc(-c3ccc(C(=N)N)cc3)o2)cc1 [FURAMIDINE] (DNA topoisomerase 1 (Homo sapiens, UniProt P11387))
A. 1200
